# System: TF-1 cells
# ASSAY METHOD TEXT: IL-6-stimulated STAT3 phosphorylation in TF-1 cells (JAK1-dependent signaling, MSD)
# Type: cell-based
# STATED CONDITIONS: Homo sapiens, 0.5 h; TF-1 cells, IL-6 30 ng/mL, 30 min; read-out: IL6-pSTAT3 TF1 EC50
pEC50: −log10 of the molar value.
QUANTITY KIND: pEC50

In [3]: df
Out[3]:
                                   compound  recorded_measurement
0  O=C(NC1CCOCC1)c1cnn2ccc(NC3Cc4ccccc4C3)nc12                  5.85
1  Cc1cc(NC(=O)c2cnn3ccc(Nc4cccc(C(F)(F)F)c4)nc23)on1                  5.80
2  Cc1cc(NC(=O)c2cnn3ccc(N)nc23)n(-c2cc(Cl)ccc2C)n1                  6.77
3  O=C(N[C@H]1CC[C@H](O)CC1)c1cnn2ccc(NC3CCc4ccccc43)nc12 (stereo partly shown)                  5.73
4  Nc1ccn2ncc(C(=O)Nc3ccnn3-c3cc(Cl)ccc3Cl)c2n1                  6.29
5  Nc1ccn2ncc(C(=O)Nc3c[nH]nc3-c3cc(Cl)ccc3Cl)c2n1                  6.78
6  Cc1cc(NC(=O)c2cnn3ccc(N)nc23)n(-c2ccccc2C)n1                  6.42

====

# TARGET DESC: human JAK2 kinase domain (Homo sapiens (Human))
# Sequence (O60674 812-1132): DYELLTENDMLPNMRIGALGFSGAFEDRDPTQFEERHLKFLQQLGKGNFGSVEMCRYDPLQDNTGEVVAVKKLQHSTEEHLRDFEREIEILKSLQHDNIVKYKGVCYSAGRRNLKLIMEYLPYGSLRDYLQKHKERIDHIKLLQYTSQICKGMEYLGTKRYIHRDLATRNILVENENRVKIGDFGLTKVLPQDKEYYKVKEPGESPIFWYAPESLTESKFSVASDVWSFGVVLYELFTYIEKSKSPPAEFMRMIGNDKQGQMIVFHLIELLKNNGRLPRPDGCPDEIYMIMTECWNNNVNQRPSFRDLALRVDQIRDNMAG
pKi: −log10 of the molar value.
As shown below, each of these compounds has a reported pKi value.
QUANTITY KIND: pKi

                                   compound  recorded_measurement
0  O=C(NC1CCOCC1)c1cnn2ccc(NC3Cc4ccccc4C3)nc12                  8.80
1  Cc1cc(NC(=O)c2cnn3ccc(N)nc23)n(-c2ccccc2C)n1                  8.38
2  Cc1nc(-c2ccccc2C)c(NC(=O)c2cnn3ccc(N)nc23)s1                  8.74
3  O=C(N[C@H]1CC[C@H](O)CC1)c1cnn2ccc(NC3CCc4ccccc43)nc12 (stereo partly shown)                  9.10

====

# TARGET DESC: human JAK3 kinase domain (Homo sapiens (Human), UniProt P52333)
# Sequence (P52333 783-1124): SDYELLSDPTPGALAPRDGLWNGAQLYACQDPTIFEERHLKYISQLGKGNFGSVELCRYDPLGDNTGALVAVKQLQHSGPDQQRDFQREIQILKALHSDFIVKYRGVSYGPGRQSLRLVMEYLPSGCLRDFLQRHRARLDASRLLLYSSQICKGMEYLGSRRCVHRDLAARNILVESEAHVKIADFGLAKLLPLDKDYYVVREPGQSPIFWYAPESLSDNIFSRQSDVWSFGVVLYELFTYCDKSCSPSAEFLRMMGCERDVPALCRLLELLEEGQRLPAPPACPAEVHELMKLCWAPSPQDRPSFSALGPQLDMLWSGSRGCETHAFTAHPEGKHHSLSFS
# ASSAY METHOD TEXT: biochemical
# Assay type: biochemical
# STATED CONDITIONS: enzymatic activity, 5 uM ATP; read-out: JAK3 Ki
QUANTITY KIND: Ki (nM)

                                   molecule  recorded_measurement
0  O=C(NC1CCOCC1)c1cnn2ccc(NC3Cc4ccccc4C3)nc12 [Example 297]                  39.7
1  Cc1nc(-c2ccccc2C)c(NC(=O)c2cnn3ccc(N)nc23)s1 [Example 231]                  12.4
2  Nc1ccn2ncc(C(=O)Nc3conc3-c3cccc(Cl)c3)c2n1 [Example 250]                  55.6
3  Cc1cc(NC(=O)c2cnn3ccc(N)nc23)n(-c2cc(Cl)ccc2C)n1 [Example 226]                  15.7
4  Cc1cc(NC(=O)c2cnn3ccc(Nc4cccc(C(F)(F)F)c4)nc23)on1 [Example 240]                  95.1
5  Nc1ccn2ncc(C(=O)Nc3ccnn3-c3cc(Cl)ccc3Cl)c2n1 [Example 277]                  25.4
6  Nc1ccn2ncc(C(=O)Nc3c[nH]nc3-c3cc(Cl)ccc3Cl)c2n1 [Example 248]                   1.7
7  Cc1cc(NC(=O)c2cnn3ccc(N)nc23)n(-c2ccccc2C)n1 [Example 343]                  28.6

====

A short record of pKi observed with human TYK2 kinase domain (Homo sapiens (Human), UniProt P29597) follows.
Sequence (P29597 873-1187): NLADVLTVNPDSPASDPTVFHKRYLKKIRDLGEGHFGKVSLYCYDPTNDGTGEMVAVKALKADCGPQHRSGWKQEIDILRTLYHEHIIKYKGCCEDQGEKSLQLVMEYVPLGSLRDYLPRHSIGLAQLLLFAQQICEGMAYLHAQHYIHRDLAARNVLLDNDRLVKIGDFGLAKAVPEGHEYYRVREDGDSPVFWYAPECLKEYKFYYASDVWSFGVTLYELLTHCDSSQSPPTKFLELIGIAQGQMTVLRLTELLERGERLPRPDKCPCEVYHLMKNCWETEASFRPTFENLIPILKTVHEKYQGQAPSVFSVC
pKi: −log10 of the molar value.
QUANTITY KIND: pKi

                                   compound  recorded_measurement
0  O=C(N[C@H]1CC[C@H](O)CC1)c1cnn2ccc(NC3CCc4ccccc43)nc12 (stereo partly shown) [Example 299]                  7.29
1  Nc1ccn2ncc(C(=O)Nc3ccnn3-c3cc(Cl)ccc3Cl)c2n1 [Example 277]                  7.36
2  Cc1nc(-c2ccccc2C)c(NC(=O)c2cnn3ccc(N)nc23)s1 [Example 231]                  7.36
3  Cc1cc(NC(=O)c2cnn3ccc(N)nc23)n(-c2cc(Cl)ccc2C)n1 [Example 226]                  7.48

====

# System: TF-1 cells
# ASSAY METHOD TEXT: IL-6-stimulated STAT3 phosphorylation in TF-1 cells (JAK1-dependent signaling, MSD)
# Format: cell-based
# STATED CONDITIONS: Homo sapiens, TF-1, 0.5 h, read-out: IL6-pSTAT3 TF1 EC50
QUANTITY KIND: EC50 (nM)

>>> df
                               query_smiles  unit_spec  recorded_measurement
0  Cc1nc(-c2ccccc2C)c(NC(=O)c2cnn3ccc(N)nc23)s1         nM                   371
1  Nc1ccn2ncc(C(=O)Nc3conc3-c3cccc(Cl)c3)c2n1         nM                   839
2  Cc1ccc(C)c(-c2nn(C)cc2NC(=O)c2cnn3ccc(N)nc23)c1         nM                   130

====

# TARGET DESC: human JAK3 kinase domain (Homo sapiens (Human), UniProt P52333)
# ASSAY METHOD TEXT: biochemical
# Assay type: biochemical
# Procedure: The activity of the JAK1, JAK2, JAK3 or TYK2 kinase domains was measured in vitro by monitoring phosphorylation of JAK3 derived peptides using the Caliper LabChip technology. The activity of the isolated JAK3 kinase domain was measured by monitoring phosphorylation of a peptide derived from JAK3 ([…] fluorescently labeled on the N-terminus with 5-carboxyfluorescein using the Caliper LabChip technology (Caliper Life Sciences, Hopkinton, Mass.). […]
QUANTITY KIND: Ki (nM)

In [3]: df
Out[3]:
                                   compound  recorded_measurement
0  O=C(N[C@H]1CC[C@H](O)CC1)c1cnn2ccc(NC3CCc4ccccc43)nc12 (stereo partly shown)                  14.5

====

# Test system: Set-2 cells, which express the JAK2V617F mutant protein
# ASSAY METHOD TEXT: STAT5 phosphorylation in Set-2 cells (JAK2-dependent signaling, MSD)
# Assay type: cell-based
# STATED CONDITIONS: Homo sapiens; Set-2 cells, 1 hr incubation; read-out: pSTAT5 SET2 EC50
QUANTITY KIND: EC50 (µM)

In [3]: df
Out[3]:
                                   compound  recorded_measurement
0  O=C(N[C@H]1CC[C@H](O)CC1)c1cnn2ccc(NC3CCc4ccccc43)nc12 (stereo partly shown)                 0.256
1  O=C(NC1CCOCC1)c1cnn2ccc(NC3Cc4ccccc4C3)nc12                  0.17
2  Nc1ccn2ncc(C(=O)Nc3c[nH]nc3-c3cc(Cl)ccc3Cl)c2n1                 0.018
3  Nc1ccn2ncc(C(=O)Nc3ccnn3-c3cc(Cl)ccc3Cl)c2n1                0.0434
4  Cc1cc(NC(=O)c2cnn3ccc(N)nc23)n(-c2ccccc2C)n1                 0.301
5  Cc1cc(NC(=O)c2cnn3ccc(Nc4cccc(C(F)(F)F)c4)nc23)on1                 0.365
6  Cc1cc(NC(=O)c2cnn3ccc(N)nc23)n(-c2cc(Cl)ccc2C)n1                 0.017

====

A short record of Ki observed with human JAK1 kinase domain (Homo sapiens (Human), UniProt P23458) follows.
Sequence (P23458 852-1154): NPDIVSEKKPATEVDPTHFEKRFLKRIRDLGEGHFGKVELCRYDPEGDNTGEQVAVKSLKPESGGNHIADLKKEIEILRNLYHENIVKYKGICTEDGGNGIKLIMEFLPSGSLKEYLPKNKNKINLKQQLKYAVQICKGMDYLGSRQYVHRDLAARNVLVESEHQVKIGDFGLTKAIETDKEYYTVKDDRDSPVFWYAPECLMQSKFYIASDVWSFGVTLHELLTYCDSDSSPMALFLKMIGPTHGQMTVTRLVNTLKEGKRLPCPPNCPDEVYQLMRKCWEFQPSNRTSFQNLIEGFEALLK
QUANTITY KIND: Ki (nM)

>>> print(df.to_string())
                                   compound                               target_desc  recorded_measurement
0  Nc1ccn2ncc(C(=O)Nc3conc3-c3cccc(Cl)c3)c2n1  human JAK1 kinase domain (Homo sapiens (Human), UniProt P23458)                  28.4
1  Nc1ccn2ncc(C(=O)Nc3c[nH]nc3-c3cc(Cl)ccc3Cl)c2n1  human JAK1 kinase domain (Homo sapiens (Human), UniProt P23458)                   2.8
2  Nc1ccn2ncc(C(=O)Nc3ccnn3-c3cc(Cl)ccc3Cl)c2n1  human JAK1 kinase domain (Homo sapiens (Human), UniProt P23458)                  17.6
3  O=C(N[C@H]1CC[C@H](O)CC1)c1cnn2ccc(NC3CCc4ccccc43)nc12 (some centres unmarked)  human JAK1 kinase domain (Homo sapiens (Human), UniProt P23458)                  28.7
4  Cc1nc(-c2ccccc2C)c(NC(=O)c2cnn3ccc(N)nc23)s1  human JAK1 kinase domain (Homo sapiens (Human), UniProt P23458)                  15.2
